Data origin, for the record: patent US20250295799A1

Target: T1, recombinant cynomolgus GPC3 (glypican-3) (cynomolgus monkey, UniProt A0A2K5VK50 24-558)
T1 construct: also called cynoGPC3
Assay: SPR (Biacore T200), antibody captured by anti-Fc, GPC3 injected, single-cycle kinetics, 1:1 fit; average
pKd: −log10 of the molar value.
Each entry below lists one item and its recorded pKd value.

BINDER	pKd
v40217, H18L6_LC_N33K mAb (antibody, human IgG1, kappa, V domains shown, no number given for this variant) VH: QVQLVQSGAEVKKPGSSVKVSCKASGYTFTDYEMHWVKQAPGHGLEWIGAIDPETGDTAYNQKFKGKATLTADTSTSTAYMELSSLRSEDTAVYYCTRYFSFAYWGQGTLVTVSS VL: EIVLTQSPATLSLSPGERATISCRSSQSLRHSKGNTYLQWYQQKPGQAPRLLIYKVSNRFSGVPARFSGSGSGTDFTLTISSLEPEDFAVYFCYQSKHVPYTFGGGTKVEIKR	7.85
v40213, H18L6_LC_N33E mAb (antibody, human IgG1, kappa, V domains shown, no number given for this variant) VH: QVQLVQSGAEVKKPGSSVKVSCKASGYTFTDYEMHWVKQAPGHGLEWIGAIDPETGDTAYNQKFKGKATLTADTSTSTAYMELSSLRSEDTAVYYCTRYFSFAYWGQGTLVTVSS VL: EIVLTQSPATLSLSPGERATISCRSSQSLRHSEGNTYLQWYQQKPGQAPRLLIYKVSNRFSGVPARFSGSGSGTDFTLTISSLEPEDFAVYFCYQSKHVPYTFGGGTKVEIKR	7.78
v40214, H18L6_LC_N33T mAb (antibody, human IgG1, kappa, V domains shown, no number given for this variant) VH: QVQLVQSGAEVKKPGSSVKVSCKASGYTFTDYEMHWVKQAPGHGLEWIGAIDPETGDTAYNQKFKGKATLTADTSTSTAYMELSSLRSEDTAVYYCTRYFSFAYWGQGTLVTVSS VL: EIVLTQSPATLSLSPGERATISCRSSQSLRHSTGNTYLQWYQQKPGQAPRLLIYKVSNRFSGVPARFSGSGSGTDFTLTISSLEPEDFAVYFCYQSKHVPYTFGGGTKVEIKR	7.79
v40219, H18L6_LC_N33A mAb (antibody, human IgG1, kappa, V domains shown, no number given for this variant) VH: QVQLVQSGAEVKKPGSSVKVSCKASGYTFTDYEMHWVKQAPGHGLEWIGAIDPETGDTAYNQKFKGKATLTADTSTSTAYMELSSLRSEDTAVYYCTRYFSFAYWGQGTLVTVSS VL: EIVLTQSPATLSLSPGERATISCRSSQSLRHSAGNTYLQWYQQKPGQAPRLLIYKVSNRFSGVPARFSGSGSGTDFTLTISSLEPEDFAVYFCYQSKHVPYTFGGGTKVEIKR	7.98
